Values compiled from patent US20130079278A1.

TEST_TARGET: glucagon receptor (human, UniProt P47871 26-477)
Sequence (P47871 26-477): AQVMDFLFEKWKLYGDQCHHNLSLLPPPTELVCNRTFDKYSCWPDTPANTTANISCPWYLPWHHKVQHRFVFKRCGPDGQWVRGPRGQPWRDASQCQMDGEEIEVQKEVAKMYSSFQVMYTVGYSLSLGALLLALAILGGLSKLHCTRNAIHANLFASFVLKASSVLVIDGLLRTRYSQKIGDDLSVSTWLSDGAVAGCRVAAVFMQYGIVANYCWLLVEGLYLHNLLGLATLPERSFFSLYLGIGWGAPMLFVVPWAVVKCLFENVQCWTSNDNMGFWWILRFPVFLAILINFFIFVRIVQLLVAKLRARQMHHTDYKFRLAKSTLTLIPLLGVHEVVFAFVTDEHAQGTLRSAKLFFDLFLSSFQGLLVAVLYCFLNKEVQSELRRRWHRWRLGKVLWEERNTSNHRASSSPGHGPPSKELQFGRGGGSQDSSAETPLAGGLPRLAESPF
PROTOCOL_DETAILS: cell-based or functional assay
*1 amine or outer side, *2 acyl side, *3 side chain or, on linkers, in order; H or OH if unused. Where no end group is shown, it is not given here. Side-chain parts run from the residue outwards. The star is where a group is joined. C20 diacid = O=C(O)CCCCCCCCCCCCCCCCCCC(=O)*; C18 diacid = O=C(O)CCCCCCCCCCCCCCCCC(=O)*; γGlu = O=C(O)[C@H](CCC(=O)[*:2])N[*:1]; AEEA = NCCOCCOCC(=O)O
VALUE_TYPE: Assay (I) Glucagon [EC50] (nM)

# example entries with known answers
>>> experimental_value("HSQGTFTSDYSKYLDTRRAQDFVK([γGlu-γGlu-AEEA-AEEA-γGlu-C18 diacid])WLLST")
0.075
>>> experimental_value("HSQGTFTSDYSKYLESRRAQDFVK([γGlu-γGlu-AEEA-AEEA-γGlu-C18 diacid])WLEST")
0.682
>>> experimental_value("HSQGTFTSDYSRYLDLRRAQDFVK([γGlu-γGlu-AEEA-AEEA-γGlu-C20 diacid])WLLST")
1.07

(a) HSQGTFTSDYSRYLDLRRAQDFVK([γGlu-γGlu-AEEA-AEEA-γGlu-C18 diacid])WLLIT
(b) HSQGTFTSDYSKYLDTRRAQDFVK([AEEA-γGlu-γGlu-AEEA-γGlu-C18 diacid])WLLST
Enquiry: Select the item whose Assay (I) Glucagon [EC50] value is smaller, choosing between a and b . Respond using the label that marks the chosen record.
Return: b
